Data origin, for the record: patent US7320996B2

Give IC50 for every item shown.
- system_name: PDGFR-β (NIH 3T3 cell lysate) (Homo sapiens, UniProt P09619)
- Sequence (P09619 33-1106): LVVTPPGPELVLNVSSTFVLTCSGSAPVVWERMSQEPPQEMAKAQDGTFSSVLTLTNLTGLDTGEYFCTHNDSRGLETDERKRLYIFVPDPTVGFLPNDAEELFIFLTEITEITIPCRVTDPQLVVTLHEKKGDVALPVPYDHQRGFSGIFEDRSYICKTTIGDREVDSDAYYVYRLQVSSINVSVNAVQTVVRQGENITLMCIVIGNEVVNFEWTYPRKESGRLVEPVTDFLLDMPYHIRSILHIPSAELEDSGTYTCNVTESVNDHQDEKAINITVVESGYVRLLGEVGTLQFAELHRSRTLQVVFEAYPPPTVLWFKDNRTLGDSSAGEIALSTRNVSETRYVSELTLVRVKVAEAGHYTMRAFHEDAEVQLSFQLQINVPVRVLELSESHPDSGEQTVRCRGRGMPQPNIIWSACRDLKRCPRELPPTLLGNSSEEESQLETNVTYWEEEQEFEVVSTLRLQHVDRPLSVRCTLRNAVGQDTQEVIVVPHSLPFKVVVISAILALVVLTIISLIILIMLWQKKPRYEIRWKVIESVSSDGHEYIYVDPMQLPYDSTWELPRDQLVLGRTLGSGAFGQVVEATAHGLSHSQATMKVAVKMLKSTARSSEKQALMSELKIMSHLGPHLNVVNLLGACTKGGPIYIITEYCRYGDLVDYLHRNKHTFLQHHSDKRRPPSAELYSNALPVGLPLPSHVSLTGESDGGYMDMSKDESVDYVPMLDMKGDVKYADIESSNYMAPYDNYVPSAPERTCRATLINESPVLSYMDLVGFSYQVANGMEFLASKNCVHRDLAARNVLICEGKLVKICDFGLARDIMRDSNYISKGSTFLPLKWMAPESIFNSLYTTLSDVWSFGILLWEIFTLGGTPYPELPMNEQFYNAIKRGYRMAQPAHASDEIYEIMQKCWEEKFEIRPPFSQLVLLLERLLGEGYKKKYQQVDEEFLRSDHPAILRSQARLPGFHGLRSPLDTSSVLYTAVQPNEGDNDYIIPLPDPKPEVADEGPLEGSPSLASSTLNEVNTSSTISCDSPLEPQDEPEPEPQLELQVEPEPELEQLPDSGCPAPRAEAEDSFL
- assay_protocol: PDGFR bioassay, ELISA
- conditions_used: read-out: bio PDGF IC50

### Prompt Recorded IC50 of `CCN(CC)CCCNC(=O)c1[nH]c(/C=C2\C(=O)Nc3ccc(OC)cc32)cc1C` , please.
### Response > 100 µM

### Prompt Recorded IC50 of `Cc1[nH]c(/C=C2\C(=O)Nc3ccc(Cl)cc32)c(C)c1C(=O)NCCN(C)C` , please.
### Response < 0.78 µM

### Prompt Recorded IC50 of `Cc1c(C(=O)NCCCN2CCOCC2)[nH]c(/C=C2\C(=O)Nc3ccc(Br)cc32)c1C(=O)c1ccccc1` , please.
### Response > 100 µM

### Prompt Recorded IC50 of `Cc1[nH]c(/C=C2\C(=O)Nc3cc(-c4ccccc4)ccc32)c(C)c1C(=O)NCCN(C)C` , please.
### Response < 0.78 µM

### Prompt Recorded IC50 of `Cc1c(C(=O)NCCCN2CCCC2)[nH]c(/C=C2\C(=O)Nc3cc(-c4ccccc4)ccc32)c1C(=O)c1ccccc1` , please.
### Response > 100 µM

### Prompt Recorded IC50 of `CCN(CC)CCNC(=O)c1c(C)[nH]c(/C=C2\C(=O)Nc3cc(-c4cccnc4)ccc32)c1C` , please.
### Response < 0.78 µM

### Prompt Recorded IC50 of `CNS(=O)(=O)c1ccc2c(c1)/C(=C/c1[nH]cc(C(=O)NCC(=O)O)c1C)C(=O)N2` , please.
### Response 1.2 µM

### Prompt Recorded IC50 of `Cc1c(C(=O)NCCCN2CCCC2)[nH]c(/C=C2\C(=O)Nc3ccc(Br)cc32)c1C(=O)c1ccccc1` , please.
### Response > 100 µM

### Prompt Recorded IC50 of `CCOC(=O)CNC(=O)c1c[nH]c(/C=C2\C(=O)Nc3ccc(S(=O)(=O)NC)c(C)c32)c1C` , please.
### Response > 100 µM

### Prompt Recorded IC50 of `Cc1cc(C(=O)NCCCN2CCCC2)[nH]c1/C=C1\C(=O)Nc2ccc(Br)cc21` , please.
### Response > 100 µM
